test system: human induced hepatic stem cells AFB1-1; test: Quantitative RT-PCR, differentiation with TGF-β signaling inhibitors (Example 12); type: cell-based; details: cell samples Nos. 1545-1549: 0.5 μM inhibitor in ReproStem (bFGF-free), no feeder cells, Matrigel, 13 days after seeding
Structures can show the parent of a compound that is named as a salt.
measured-parameter: KRT7 expression Ct value
Numbers only.

Solved cases below.
• Cc1cccc(-c2nc(C(C)(C)C)[nH]c2-c2ccc3c(c2)OCO3)n1 [compound 616453, HCl] = 19.45
• Cc1cccc(-c2[nH]c(C(C)(C)C)nc2-c2ccc3c(c2)OCO3)n1.Cl [SB-505124] = 19.8
• Cc1cccc(-c2nn(C(=S)Nc3ccccc3)cc2-c2ccnc3ccccc23)n1 [A-83-01] = 20.51
• Cc1cccc(-c2[nH]c(C(C)(C)C)nc2-c2ccc3nccnc3c2)n1 [compound 616459] = 19.89

We now examine a further compound.
get_value(item= Fc1ccc(Cl)cc1-c1nc(Nc2ccncc2)c2nccnc2n1 [compound 616456] , readout=KRT7 expression Ct value) returns 20.05
